Listed here: items and their measured Max growth inhibition (%).
target: PfRH5 from Plasmodium falciparum strain W2-mef (Plasmodium falciparum); experiment: cell-based or functional assay
Output spec: scalar in %, unitless text.

The cases that follow already have their Max growth inhibition (%) on record.
// H1H29127P (antibody, V domains shown) VH: QVQLVESGGGVVQPGRSLRLSCAASGFTFSSYGMHWVRQAPGKGLEWVAAIWYDGSNKYYADSVKGRFTISRDNSKNTLYLQMNSLRAEDTAVYFCARGEHYYGSGPFDPWGQGTLVTVSS VL: DIQMTQSPSSLSASVGDRVTITCRASQSISNYLNWYQQKPGKAPKLLIFAASSLQSGVPSRFSGSGSGTDFTLTISSLQPEDFATYYCQQSYSSPLTFGGGTKVEIKR : Max growth inhibition (%) value = 53.6

Form field Max growth inhibition (%), entry H1H29109P (antibody, V domains shown) VH: EVQLVESGGGLVQPGRSLRLSCAVSGFTFDDYAMHWVRQAPGKGLEWVSGISWNSGDIDYADSVKGRFTISRDNAKNSLYLQMNSLRAEDTALYYCAKDTLSGTGTTWYYFDYWGQGTLVTVSS VL: DIQLTQSPSFLSASVGDRVTITCWASQGISSYLIWYQQKPGKAPKLLIYAASTLQSGVPSRFSGSGSGTEFTLTISSLQPEDFATYYCQQVNSYPLTFGGGTKVEIKR : 37.9

Max growth inhibition (%) recorded for this binder, H1H29125P (antibody, V domains shown) VH: QVQLVESGGGVVQPGRSLRLSCAASGFTFSSYGMHWVRQAPGKGLEWMAVISYDGSNKYYADSVKGRFTISRDNSKNTLFLQMNSLRPEDTAVYYCAQDGSSAIYYFYGMDVWGQGTTVTVSS VL: DIQMTQSPSSLSASIGDRVTITCRASQDINNYLAWFQQKPGKAPKSLIYAASSLQSGVPSKFSGSGSGTDFTLTISSLQPEDFATYYCLQYNSYHPTFGQGTKLEIKR , is 64.6

Shift focus to the following entry.
Max growth inhibition (%) measured on H1H29138P (antibody, V domains shown) VH: QVQLVESGGGVVQPGRSLRLSCAASGFTFSTYGMHWVRQAPGKGLEWVAVIWYDGTNKYYADSVKGRFTISRDNSKNTLYLQMISLRAEDTAVYYCARDPSGGDHYYYYGMDVWGQGTTVTVSS VL: DIQMTQSPSSLSASVGDRITITCQASQDISNYLNWYQQKPGKAPNLLISDASDLETGVPSRFSGSGSGTDFTFTISSLQPEDFATYYCQQYDNIPITFGQGTRLEIKR = 66.4
